Below: a set of entries, each annotated with reported inhibition.
Biological target: UniProt:P11388
Sequence (P11388 whole entry): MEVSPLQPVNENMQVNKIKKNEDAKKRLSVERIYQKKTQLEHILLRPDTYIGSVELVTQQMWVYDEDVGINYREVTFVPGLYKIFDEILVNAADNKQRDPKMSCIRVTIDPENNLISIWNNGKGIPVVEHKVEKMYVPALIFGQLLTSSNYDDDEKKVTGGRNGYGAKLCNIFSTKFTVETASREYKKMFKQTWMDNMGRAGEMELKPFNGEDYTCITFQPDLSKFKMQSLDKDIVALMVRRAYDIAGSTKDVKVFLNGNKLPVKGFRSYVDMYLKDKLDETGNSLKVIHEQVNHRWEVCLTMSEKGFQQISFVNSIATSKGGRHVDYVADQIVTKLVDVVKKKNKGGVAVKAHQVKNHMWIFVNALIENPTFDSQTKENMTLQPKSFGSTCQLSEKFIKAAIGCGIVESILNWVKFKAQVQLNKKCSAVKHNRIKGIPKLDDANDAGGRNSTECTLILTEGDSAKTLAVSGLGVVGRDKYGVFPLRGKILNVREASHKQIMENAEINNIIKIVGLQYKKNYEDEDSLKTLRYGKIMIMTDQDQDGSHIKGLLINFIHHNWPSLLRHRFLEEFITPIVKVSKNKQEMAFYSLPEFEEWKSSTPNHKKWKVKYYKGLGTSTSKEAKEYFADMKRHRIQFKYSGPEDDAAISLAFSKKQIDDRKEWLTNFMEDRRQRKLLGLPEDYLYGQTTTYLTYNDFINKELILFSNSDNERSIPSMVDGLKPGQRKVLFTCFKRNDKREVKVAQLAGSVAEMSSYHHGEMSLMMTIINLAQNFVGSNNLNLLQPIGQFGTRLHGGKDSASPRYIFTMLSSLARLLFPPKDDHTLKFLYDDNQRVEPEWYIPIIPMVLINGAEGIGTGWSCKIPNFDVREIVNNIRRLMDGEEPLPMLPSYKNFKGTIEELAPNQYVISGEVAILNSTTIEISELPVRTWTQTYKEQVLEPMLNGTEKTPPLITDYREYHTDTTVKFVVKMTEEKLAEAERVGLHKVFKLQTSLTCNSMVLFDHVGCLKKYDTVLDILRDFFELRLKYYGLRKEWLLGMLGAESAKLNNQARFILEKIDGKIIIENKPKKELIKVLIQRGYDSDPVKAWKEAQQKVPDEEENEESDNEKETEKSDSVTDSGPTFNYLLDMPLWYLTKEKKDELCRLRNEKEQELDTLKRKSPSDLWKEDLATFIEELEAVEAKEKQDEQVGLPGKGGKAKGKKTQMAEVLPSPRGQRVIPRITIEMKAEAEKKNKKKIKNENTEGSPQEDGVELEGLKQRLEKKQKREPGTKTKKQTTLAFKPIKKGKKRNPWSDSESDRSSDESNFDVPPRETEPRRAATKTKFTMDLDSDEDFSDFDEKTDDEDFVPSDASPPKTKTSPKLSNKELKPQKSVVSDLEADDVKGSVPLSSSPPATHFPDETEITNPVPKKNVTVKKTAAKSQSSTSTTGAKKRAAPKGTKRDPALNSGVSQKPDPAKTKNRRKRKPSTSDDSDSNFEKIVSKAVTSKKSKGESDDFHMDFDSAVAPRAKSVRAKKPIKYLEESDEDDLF
Assay: Inhibition of human recombinant topoisomerase-2 alpha assessed as conversion of super-coiled plasmid DNA pBR322 to relaxed DNA at 100 uM after 30 mins by ethidium bromide staining-based agarose gel electrophoresis (reference value: 32.4%)
property: inhibition (%)

> print(dat)
                                 smilesrepr    property  reportedmeasurement
1  c1ccc(-c2cc(-c3ccoc3)c3c(n2)-c2ccccc2C3)nc1  inhibition                 17.5
2  c1ccc(-c2cc(-c3ccccn3)c3c(n2)-c2ccccc2C3)nc1  inhibition                 10.2
3  c1coc(-c2cc(-c3cccs3)nc3c2Cc2ccccc2-3)c1  inhibition                 40.5
4  c1ccc(-c2cc(-c3cccs3)c3c(n2)-c2ccccc2C3)nc1  inhibition                    9
